Ref: patent US20240010684A1

system-tested: T1, recombinant human MASP1 (amino acids 297-699, C-terminal His Tag) (human) (UniProt P48740)
T1 sequence: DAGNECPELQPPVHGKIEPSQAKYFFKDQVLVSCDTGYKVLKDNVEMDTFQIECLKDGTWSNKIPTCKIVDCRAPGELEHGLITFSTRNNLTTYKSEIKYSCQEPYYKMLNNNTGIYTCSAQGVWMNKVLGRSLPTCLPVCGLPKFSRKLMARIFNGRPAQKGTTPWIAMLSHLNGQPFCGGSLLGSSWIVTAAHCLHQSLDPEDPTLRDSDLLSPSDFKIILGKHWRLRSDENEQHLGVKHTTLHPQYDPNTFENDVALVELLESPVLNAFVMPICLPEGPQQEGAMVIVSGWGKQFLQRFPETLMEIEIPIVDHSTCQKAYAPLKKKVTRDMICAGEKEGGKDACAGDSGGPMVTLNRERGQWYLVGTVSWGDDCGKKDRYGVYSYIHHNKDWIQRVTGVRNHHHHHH
test-name: cell-based or functional assay
Bridges are numbered along the chain shown (N, C = ends). [ ]: non-standard residue; d: D form. Oic = O=C(O)[C@@H]1C[C@@H]2CCCC[C@@H]2N1; Trx = NC[C@H]1CC[C@H](C(=O)O)CC1; tBuAla = CC(C)(C)C[C@H](N)C(=O)O; Pen = CC(C)(S)[C@H](N)C(=O)O; NMeC = CN[C@@H](CS)C(=O)O; Ahx = NCCCCCC(=O)O; Sar = CNCC(=O)O
Label scheme for human MASP1 IC50: lower than 10 nM is No, 10 nM and above is Yes.

[Ahx]GICSRS[tBuAla]PPI[NMeC]IPD-NH2 (disulfide 4-12; lactam N-15; also: TFA salt) [Example 40: (Ahx)**-GIC+SRS-((tBu)A)-PPI-((N-Me)C)+-IPD++-NH2] ... No
cyclo(AGAICSRS[tBuAla]PPI[NMeC]IPD) (disulfide 5-13; also: TFA salt) [Example 31: A**GAIC+SRS-((tBu)A)-PPI-((N-Me)C)+-IPD**] ... Yes

Request: Please check the record G[Trx]GICSRS[tBuAla]PPI[NMeC]IPD-NH2 (disulfide 5-13; lactam N-16; also: TFA salt) [Example 69: G**-(TXA)-GIC+SRS-((tBu)A)-PPI-((N-Me)C)+-IPD++-NH2] and state if its human MASP1 IC50 is at or above 10 nM.
Response: Yes

Request: Please check the record [Ahx][Sar]GICSRSLP[Oic]I[Pen]IPE-NH2 (disulfide 5-13; lactam N-16; also: TFA salt) [Example 76: (Ahx)**-((N-Me)G)-GIC+SRSLP-(Oic)-I-(Pen)+-IPE++-NH2] and state if its human MASP1 IC50 is at or above 10 nM.
Response: No
